# method: Solubility test
# Format: physicochemical
# conditions_used: DMSO, organic solvent or mixture, thermodynamic from solid
measured_quantity: solubility

INSERT INTO assay_data (compound, assay_result) VALUES
  ('C/C1=C/C[C@@H](/C(C)=C/c2csc(C)n2)OC(=O)C[C@H](O)C(C)(C)C(=O)[C@H](C)[C@@H](O)[C@@H](C)CCC1 [semihydrate crystal]', '> 50 mg/mL');

* * *

# method: Solubility test
# Assay type: physicochemical
# conditions_used: propylene glycol, organic solvent or mixture, thermodynamic from solid
measured_quantity: solubility

INSERT INTO measurements (compound, assay_result) VALUES
  ('C/C1=C/C[C@@H](/C(C)=C/c2csc(C)n2)OC(=O)C[C@H](O)C(C)(C)C(=O)[C@H](C)[C@@H](O)[C@@H](C)CCC1 [semihydrate crystal]', '> 50 mg/mL');
